assayedTarget: PTK2 (FAK) (Homo sapiens, UniProt Q05397)
Sequence (Q05397 whole entry): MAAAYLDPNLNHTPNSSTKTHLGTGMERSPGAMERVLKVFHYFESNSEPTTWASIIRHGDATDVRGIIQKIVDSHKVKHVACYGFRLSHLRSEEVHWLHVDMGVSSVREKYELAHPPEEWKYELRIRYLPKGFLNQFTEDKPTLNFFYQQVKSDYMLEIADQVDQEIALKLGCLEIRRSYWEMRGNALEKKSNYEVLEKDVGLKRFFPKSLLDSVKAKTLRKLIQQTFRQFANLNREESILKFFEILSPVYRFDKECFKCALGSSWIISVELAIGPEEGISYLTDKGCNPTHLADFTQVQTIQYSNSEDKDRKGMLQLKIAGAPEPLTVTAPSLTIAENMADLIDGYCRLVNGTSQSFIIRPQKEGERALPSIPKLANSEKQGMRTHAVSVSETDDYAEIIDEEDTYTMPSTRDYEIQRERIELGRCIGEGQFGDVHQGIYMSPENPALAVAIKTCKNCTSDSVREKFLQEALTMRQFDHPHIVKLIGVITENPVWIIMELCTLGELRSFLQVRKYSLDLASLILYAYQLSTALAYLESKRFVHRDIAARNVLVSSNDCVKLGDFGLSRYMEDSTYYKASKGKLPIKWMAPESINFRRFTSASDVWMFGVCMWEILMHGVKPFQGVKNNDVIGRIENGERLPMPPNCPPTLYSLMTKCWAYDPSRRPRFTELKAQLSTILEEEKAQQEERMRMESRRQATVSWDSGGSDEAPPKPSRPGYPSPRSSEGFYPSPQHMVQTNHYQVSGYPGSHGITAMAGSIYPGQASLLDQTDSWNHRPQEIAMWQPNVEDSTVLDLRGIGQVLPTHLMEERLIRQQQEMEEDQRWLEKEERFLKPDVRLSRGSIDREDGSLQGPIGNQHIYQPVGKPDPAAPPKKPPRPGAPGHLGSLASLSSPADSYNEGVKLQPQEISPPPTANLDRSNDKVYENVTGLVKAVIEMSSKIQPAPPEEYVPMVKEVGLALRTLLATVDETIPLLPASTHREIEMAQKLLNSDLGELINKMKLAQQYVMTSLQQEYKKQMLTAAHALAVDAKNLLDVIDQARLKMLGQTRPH
experiment: Z'-LYTE SelectScreen biochemical kinase assay PTK2 (FAK)
assayConditions: 10 μmolar compound concentration; ATP at Km app; read-out: PTK2 (FAK) inhibition
Would you kindly list inhibition at 10 µM for each of these compounds?

Note down inhibition at 10 µM recorded for CCn1ncc2c1CCC(Nc1nc3c(-c4cncc(Cl)c4)cccn3n1)C2 (stereo not drawn) [Example 73]
< 40%

State, in one line, measured inhibition at 10 µM of Cc1cc(F)ccc1-c1cccn2nc(NC3CCc4c(cnn4CC(C)C)C3)nc12 (stereo not drawn) [Example 45]
< 40%

Could you please provide reported inhibition at 10 µM for CCn1ncc2c1CCC(Nc1nc3c(-c4cccc(Cl)c4)cccn3n1)C2 (stereo not drawn) [Example 59] ? Thanks!
< 40%

Answer with reported inhibition at 10 µM of CCn1ncc2c1CCC(Nc1nc3c(-c4cncc(OC)c4)cccn3n1)C2 (stereo not drawn) [Example 70]
< 40%

Give me measured inhibition at 10 µM, please, for this compound: CCn1ncc2c1CCC(Nc1nc3c(-c4cccnc4)cccn3n1)C2 (stereo not drawn) [Example 63]
< 40%

Output measured inhibition at 10 µM for this item: Cc1cc(F)ccc1-c1cccn2nc(NC3CCc4cnn(C)c4C3)nc12 (stereo not drawn) [Example 40]
< 40%

Provide measured inhibition at 10 µM value, entry: CCn1ncc2c1CCC(Nc1nc3c(-c4ccccc4)cccn3n1)C2 (stereo not drawn) [Example 57]
< 40%

Give a short answer stating reported inhibition at 10 µM for CCn1ncc2c1C(C)CC(Nc1nc3c(-c4cc(F)c(F)c(F)c4)cccn3n1)C2 (stereo not drawn) [Example 49] .
< 40%

Specify inhibition at 10 µM for CCn1ncc2c1CC[C@@H](Nc1nc3c(-c4ccc(F)cc4C)cccn3n1)C2 [Example R-42] and stop.
< 40%

----------
Assign inhibition at 10 µM to each entry below.
assayedTarget: AURKA (Aurora A) (Homo sapiens)
Sequence (O14965 whole entry): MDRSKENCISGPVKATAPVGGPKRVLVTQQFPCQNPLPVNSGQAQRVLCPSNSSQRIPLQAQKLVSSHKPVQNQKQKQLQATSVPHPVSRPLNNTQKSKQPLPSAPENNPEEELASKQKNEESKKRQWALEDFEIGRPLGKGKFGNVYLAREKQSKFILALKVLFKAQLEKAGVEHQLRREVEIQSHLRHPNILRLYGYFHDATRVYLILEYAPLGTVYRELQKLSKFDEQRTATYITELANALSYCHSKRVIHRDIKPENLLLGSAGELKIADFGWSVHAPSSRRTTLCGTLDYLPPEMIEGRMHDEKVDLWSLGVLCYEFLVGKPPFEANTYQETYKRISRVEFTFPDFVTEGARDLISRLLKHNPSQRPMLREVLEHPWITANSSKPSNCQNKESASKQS
experiment: Z'-LYTE SelectScreen biochemical kinase assay AURKA (Aurora A)
assayConditions: 10 μmolar compound concentration; ATP at Km app; read-out: AURKA (Aurora A) inhibition

For CC1(C)C(=O)Nc2ccc(Nc3nc4c(-c5cccc(F)c5)cccn4n3)cc21 [Cpd. 263 in WO09155551, reference compound] , write its inhibition at 10 µM.
> 80%

Give me measured inhibition at 10 µM, please, for this molecule: CCn1ncc2c1CCC(Nc1nc3c(-c4ccccc4)cccn3n1)C2 (stereo not shown)
< 40%

Specify reported inhibition at 10 µM for the molecule shown: CCn1ncc2c1CCC(Nc1nc3c(-c4ccc(OC)nc4)cccn3n1)C2 (stereo not shown)
40 to 80%

Please list inhibition at 10 µM recorded for the molecule CCn1ncc2c1CCC(Nc1nc3c(-c4ccc(F)cc4C)cccn3n1)C2 (stereo not shown)
< 40%

Give the reported inhibition at 10 µM for this molecule. CCn1ncc2c1CCC(Nc1nc3c(-c4ccccc4C)cccn3n1)C2 (stereo not shown)
< 40%

Consider the molecule CCn1ncc2c1CCC(Nc1nc3c(-c4cnccc4OC)cccn3n1)C2 (stereo not shown) and give its recorded inhibition at 10 µM.
< 40%

Answer with the recorded inhibition at 10 µM for the molecule listed here: Cc1cc(F)ccc1-c1cccn2nc(NC3CCc4cnn(C)c4C3)nc12 (stereo not shown)
< 40%

Give the value of inhibition at 10 µM reported for the following: CCn1nc(Cl)c2c1CCC(Nc1nc3c(-c4ccc(F)cc4C)cccn3n1)C2 (stereo not shown)
< 40%

Quote inhibition at 10 µM reported for CCn1ncc2c1CCC(Nc1nc3c(-c4ccc(F)cc4)cccn3n1)C2 (stereo not shown) please.
< 40%

For the molecule CCn1ncc2c1CC[C@H](Nc1nc3c(-c4ccc(F)c(Cl)c4)cccn3n1)C2 , give its measured inhibition at 10 µM value.
< 40%

Supply recorded inhibition at 10 µM for CCn1ncc2c1C(C)CC(Nc1nc3c(-c4cc(F)c(F)c(F)c4)cccn3n1)C2 (stereo not shown) here.
< 40%

Supply measured inhibition at 10 µM of CCn1ncc2c1CCC(Nc1nc3c(-c4cncc(OC)c4)cccn3n1)C2 (stereo not shown) in your reply.
40 to 80%

Answer with reported inhibition at 10 µM of Cc1cc(F)ccc1-c1cccn2nc(NC3CCc4c(cnn4CC(C)C)C3)nc12 (stereo not shown)
< 40%

Supply measured inhibition at 10 µM of CCn1ncc2c1CCC(Nc1nc3c(-c4cccnc4)cccn3n1)C2 (stereo not shown) in your reply.
< 40%

Report inhibition at 10 µM, nothing else, for this molecule: CCn1ncc2c1CCC(Nc1nc3c(-c4cccc(Cl)c4)cccn3n1)C2 (stereo not shown)
< 40%

Give me measured inhibition at 10 µM, please, for this molecule: CCCCn1ncc2c1CCC(Nc1nc3c(-c4ccc(F)cc4C)cccn3n1)C2 (stereo not shown)
< 40%

Given Cc1cc(F)ccc1-c1cccn2nc(NC3CCc4c(cnn4C(C)C)C3)nc12 (stereo not shown) , respond with its inhibition at 10 µM.
< 40%

Read off the recorded inhibition at 10 µM for CCn1nnc2c1CCC(Nc1nc3c(-c4ccc(F)cc4C)cccn3n1)C2 (stereo not shown)
< 40%

For the molecule Cc1cc(F)ccc1-c1cccn2nc(NC3CCc4c(cnn4C)C3)nc12 (stereo not shown) , give its reported inhibition at 10 µM.
< 40%

Report measured inhibition at 10 µM; entry is Fc1cccc(-c2cccn3nc(Nc4ccc5[nH]cnc5c4)nc23)c1 [Cpd. 293 in WO09155551, reference compound]
> 80%

Quote inhibition at 10 µM reported for CCn1ncc2c1CCC(Nc1nc3c(-c4cccnc4OC)cccn3n1)C2 (stereo not shown) please.
< 40%

Return value of inhibition at 10 µM for input CCCCCn1ncc2c1CCC(Nc1nc3c(-c4ccc(F)cc4C)cccn3n1)C2 (stereo not shown) , no commentary.
< 40%

----------
assayedTarget: FGFR2 (Homo sapiens, UniProt P21802)
Sequence (P21802 22-821): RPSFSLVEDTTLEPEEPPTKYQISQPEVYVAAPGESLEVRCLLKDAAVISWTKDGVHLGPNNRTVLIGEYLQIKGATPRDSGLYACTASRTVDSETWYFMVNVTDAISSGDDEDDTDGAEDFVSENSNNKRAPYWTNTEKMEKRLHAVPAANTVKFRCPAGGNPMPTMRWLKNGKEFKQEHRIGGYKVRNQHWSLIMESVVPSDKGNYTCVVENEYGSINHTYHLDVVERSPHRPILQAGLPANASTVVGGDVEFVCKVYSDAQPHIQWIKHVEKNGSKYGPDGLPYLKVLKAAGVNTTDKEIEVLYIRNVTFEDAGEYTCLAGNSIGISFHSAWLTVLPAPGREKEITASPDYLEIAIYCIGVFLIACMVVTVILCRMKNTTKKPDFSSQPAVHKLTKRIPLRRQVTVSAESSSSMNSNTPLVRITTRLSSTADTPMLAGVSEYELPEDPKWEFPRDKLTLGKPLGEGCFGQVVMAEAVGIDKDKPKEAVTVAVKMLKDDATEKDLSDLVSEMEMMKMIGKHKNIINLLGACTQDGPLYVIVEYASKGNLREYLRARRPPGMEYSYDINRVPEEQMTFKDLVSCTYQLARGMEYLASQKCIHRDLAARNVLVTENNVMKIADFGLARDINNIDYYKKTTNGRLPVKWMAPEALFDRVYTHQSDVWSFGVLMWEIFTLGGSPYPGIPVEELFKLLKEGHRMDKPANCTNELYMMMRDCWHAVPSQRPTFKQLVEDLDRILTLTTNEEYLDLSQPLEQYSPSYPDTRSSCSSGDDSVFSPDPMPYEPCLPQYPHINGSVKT
experiment: Z'-LYTE SelectScreen biochemical kinase assay FGFR2
assayConditions: read-out: % Inhibition mean FGFR2
propertyName: inhibition at 10 µM (%)
Answer format: numeric, % implied, no suffix.

Return the recorded inhibition at 10 µM value; entry: CCn1ncc2c1CCC(Nc1nc3c(-c4ccc(C)nc4)cccn3n1)C2 (stereo not drawn)
30

Using known records, supply inhibition at 10 µM for CCn1ncc2c1CCC(Nc1nc3c(-c4ccccc4C)cccn3n1)C2 (stereo not drawn)
19

Report measured inhibition at 10 µM; entry is CCc1nn(C)c2c1CCC(Nc1nc3c(-c4ccc(F)cc4C)cccn3n1)C2 (stereo not drawn)
25

Give the reported inhibition at 10 µM for this molecule. CCn1ncc2c1CC[C@@H](Nc1nc3c(-c4ccc(F)cc4C)cccn3n1)C2
30

Report inhibition at 10 µM, nothing else, for this molecule: CCn1nnc2c1CCC(Nc1nc3c(-c4ccc(F)cc4C)cccn3n1)C2 (stereo not drawn)
28

State its inhibition at 10 µM: CCCCCn1ncc2c1CCC(Nc1nc3c(-c4ccc(F)cc4C)cccn3n1)C2 (stereo not drawn)
21

Report inhibition at 10 µM, nothing else, for this molecule: CCn1ncc2c1CCC(Nc1nc3c(-c4ccc(OC)nc4)cccn3n1)C2 (stereo not drawn)
27

Supply measured inhibition at 10 µM of CCn1nc(Cl)c2c1CCC(Nc1nc3c(-c4ccc(F)cc4C)cccn3n1)C2 (stereo not drawn) in your reply.
22

Return reported inhibition at 10 µM. Input molecule: Cc1cc(F)ccc1-c1cccn2nc(Nc3ccc4c(cnn4C)c3)nc12
46

----------
assayedTarget: CSF1R (FMS) (Homo sapiens, UniProt P07333)
Sequence (P07333 20-972): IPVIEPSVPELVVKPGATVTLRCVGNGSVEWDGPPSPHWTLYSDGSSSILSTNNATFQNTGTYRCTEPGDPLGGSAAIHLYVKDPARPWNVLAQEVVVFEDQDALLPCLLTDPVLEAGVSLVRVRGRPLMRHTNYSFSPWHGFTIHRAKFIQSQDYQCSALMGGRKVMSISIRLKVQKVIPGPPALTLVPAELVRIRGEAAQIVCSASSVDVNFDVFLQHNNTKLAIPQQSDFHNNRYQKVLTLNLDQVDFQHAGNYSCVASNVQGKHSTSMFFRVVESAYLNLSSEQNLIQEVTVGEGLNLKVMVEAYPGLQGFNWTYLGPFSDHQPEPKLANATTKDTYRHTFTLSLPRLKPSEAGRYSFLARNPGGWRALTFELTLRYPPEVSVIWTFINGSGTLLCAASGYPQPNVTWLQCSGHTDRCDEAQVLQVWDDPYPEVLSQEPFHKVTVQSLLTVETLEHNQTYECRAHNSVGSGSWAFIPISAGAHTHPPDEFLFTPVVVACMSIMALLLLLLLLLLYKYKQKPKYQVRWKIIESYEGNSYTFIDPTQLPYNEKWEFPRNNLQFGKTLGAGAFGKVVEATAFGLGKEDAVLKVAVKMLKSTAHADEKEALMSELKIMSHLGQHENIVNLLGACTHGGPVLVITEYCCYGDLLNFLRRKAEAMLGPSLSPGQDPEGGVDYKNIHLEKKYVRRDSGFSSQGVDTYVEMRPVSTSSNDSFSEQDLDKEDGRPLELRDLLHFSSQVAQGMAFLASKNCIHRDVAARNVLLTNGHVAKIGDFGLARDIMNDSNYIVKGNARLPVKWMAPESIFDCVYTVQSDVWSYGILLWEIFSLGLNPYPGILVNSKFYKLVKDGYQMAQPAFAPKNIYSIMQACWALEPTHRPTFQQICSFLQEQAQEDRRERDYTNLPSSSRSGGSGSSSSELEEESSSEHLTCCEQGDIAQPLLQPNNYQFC
experiment: Z'-LYTE SelectScreen biochemical kinase assay CSF1R (FMS)
assayConditions: read-out: % Inhibition mean CSF1R (FMS)
So I've got a bunch of molecules here, and I need their inhibition at 10 µM values.
Numbers only; they are read as %.

Please list inhibition at 10 µM recorded for the molecule CCn1nc(Cl)c2c1CCC(Nc1nc3c(-c4ccc(F)cc4C)cccn3n1)C2 (stereo not shown)
15

Specify measured inhibition at 10 µM for CCn1ncc2c1CCC(Nc1nc3c(-c4ccc(F)cc4)cccn3n1)C2 (stereo not shown) .
34

Identify inhibition at 10 µM associated with the molecule CCn1ncc2c1CCC(Nc1nc3c(-c4ccc(C)nc4)cccn3n1)C2 (stereo not shown)
29

Quote inhibition at 10 µM reported for CCn1ncc2c1CCC(Nc1nc3c(-c4cccc(Cl)c4)cccn3n1)C2 (stereo not shown) please.
42

----------
assayedTarget: LYN B (Homo sapiens)
Sequence (P07948 1-491 isoform P07948-2): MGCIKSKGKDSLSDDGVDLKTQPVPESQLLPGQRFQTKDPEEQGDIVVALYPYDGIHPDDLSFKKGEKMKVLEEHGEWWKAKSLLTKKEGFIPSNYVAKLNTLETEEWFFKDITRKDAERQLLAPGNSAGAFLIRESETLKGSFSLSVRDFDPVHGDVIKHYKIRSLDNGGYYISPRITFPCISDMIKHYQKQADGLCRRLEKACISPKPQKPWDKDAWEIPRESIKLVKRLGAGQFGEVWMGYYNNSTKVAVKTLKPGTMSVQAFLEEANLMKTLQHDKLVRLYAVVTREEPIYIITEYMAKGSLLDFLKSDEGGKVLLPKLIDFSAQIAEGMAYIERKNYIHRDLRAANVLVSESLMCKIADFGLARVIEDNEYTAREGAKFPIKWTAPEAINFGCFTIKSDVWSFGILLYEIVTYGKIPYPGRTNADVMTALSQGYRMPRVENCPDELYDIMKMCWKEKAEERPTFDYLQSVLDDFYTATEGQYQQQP
experiment: Z'-LYTE SelectScreen biochemical kinase assay LYN B
assayConditions: read-out: % Inhibition mean LYN B
Please respond with reported inhibition at 10 µM for every item in the list.
The answer is to be given in %; state only the numeric part.

Give inhibition at 10 µM for the following molecule: CCCn1ncc2c1CCC(Nc1nc3c(-c4ccc(F)cc4C)cccn3n1)C2 (stereo not drawn) [Example 43]
22

Recall and state the measured inhibition at 10 µM for CCn1ncc2c1C(C)CC(Nc1nc3c(-c4cc(F)c(F)c(F)c4)cccn3n1)C2 (stereo not drawn) [Example 49] .
25

Complete the entry with inhibition at 10 µM for Cc1cc(F)ccc1-c1cccn2nc(NC3CCc4c(cnn4C)C3)nc12 (stereo not drawn) [Example 10]
17

Give the reported value of inhibition at 10 µM for this record: CCn1ncc2c1CCC(Nc1nc3c(-c4ccccc4C)cccn3n1)C2 (stereo not drawn) [Example 56]
19

Query inhibition at 10 µM for Cc1cc(F)ccc1-c1cccn2nc(NC3CCc4cnn(C)c4C3)nc12 (stereo not drawn) [Example 40]
20

Output inhibition at 10 µM of CCn1ncc2c1CC[C@@H](Nc1nc3c(-c4ccc(F)cc4C)cccn3n1)C2 [Example R-42]
26

Identify the reported inhibition at 10 µM for the following entry. CCn1ncc2c1CCC(Nc1nc3c(-c4cccc(Cl)c4)cccn3n1)C2 (stereo not drawn) [Example 59]
22

State its inhibition at 10 µM: CCn1ncc2c1CCC(Nc1nc3c(-c4cccnc4)cccn3n1)C2 (stereo not drawn) [Example 63]
13

Tell me its inhibition at 10 µM given CCc1nn(C)c2c1CCC(Nc1nc3c(-c4ccc(F)cc4C)cccn3n1)C2 (stereo not drawn) [Example 54] as the entry.
15

Reference source for all entries: patent US11339161B2
